Test system: HCV replication
Assay: HCV replicon assay (luciferase) in ET (Huh-lucubineo-ET) cell line
Assay type: cell-based
Settings: Hepatitis C virus, tested at 5 μM; ET replicon cells; luciferase activity measured 48-72 hours later; relative to no compound control
Items are presented alongside their recorded inhibition at 5 µM.
observed_property: inhibition at 5 µM (%)

compound	measured_target	test_value
O=C(NC1CC1)c1ccc(-c2csc(NC(=O)[C@@H]3COC(c4ccncc4)N3C(=O)OCc3ccccc3)n2)cc1 (stereo partly drawn)	HCV replication	98.8
COc1ccc(Cc2cnc(NC(=O)[C@@H]3CSC(c4ccncc4)N3C(=O)OCc3ccccc3)s2)cc1 (stereo in doubt)	HCV replication	17.1
O=C(NC1CC1)c1ccc(-c2csc(NC(=O)[C@@H]3CSC(CC4CCOCC4)N3C(=O)OCc3ccccc3)n2)cc1 (mixture of isomers)	HCV replication	99.9
O=C(NC1CC1)c1ccc(-c2csc(NC(=O)[C@@H]3CSC4(CCCCC4)N3C(=O)OCc3ccccc3)n2)cc1	HCV replication	100
O=C(Nc1cccnc1)c1ccc(-c2csc(NC(=O)[C@@H]3COC4(CCOCC4)N3C(=O)OCc3ccccc3)n2)cc1	HCV replication	99.9
CC(C)(C)OC(=O)N1c2ccccc2C[C@H]1C(=O)Nc1nc(-c2ccc(C(=O)NC3CC3)cc2)cs1	HCV replication	99.5
